Assign Thermal Stability (Tm, C.) to each entry below.
# assay.name: Thermal stability by differential scanning calorimetry
# Format: physicochemical
# test.parameters: c-Met-binding FN3 domains, DSC in PBS
Could you give me the number in C.? Just the number is fine.

Query block: Output Thermal Stability (Tm, C.) of P114AR7P95-F10: c-Met-binding FN3 domain, SEQ ID NO: 47 (protein, c-Met binding FN3 domain) LPAPKNLVVSRVTEDSARLSWTAPDAAFDSFWIRYFEFTTAGEAIVLTVPGSERSYDLTGLKPGTEYVVNIMGVKGGSISPPLSAIFTT
Result block: 85.2

Query block: Identify Thermal Stability (Tm, C.) associated with the molecule P114AR7P95-H8: c-Met-binding FN3 domain, SEQ ID NO: 49 (protein, c-Met binding FN3 domain) LPAPKNLVVSRVTEDSARLSWTAPDAAFDSFWIRYFEFVSKGEAIVLTVPGSERSYDLTGLKPGTEYVVNIMGVKGGSISPPLSAIFTT
Result block: 83

Query block: Give a short answer stating reported Thermal Stability (Tm, C.) for P114AR7P92-H5: c-Met-binding FN3 domain, SEQ ID NO: 37 (protein, c-Met binding FN3 domain) LPAPKNLVVSRVTEDSARLSWTAPDAAFDSFWIRYLEFLLGGEAIVLTVPGSERSYDLTGLKPGTEYVVQIMGVKGGTVSPPLSAIFTT .
Result block: 87

Query block: Please look at this molecule and report its Thermal Stability (Tm, C.): P114AR7P93-H9: c-Met-binding FN3 domain, SEQ ID NO: 40 (protein, c-Met binding FN3 domain) LPAPKNLVVSRVTEDSARLSWTAPDAAFDSFWIRYFEFLGSGEAIVLTVPGSERSYDLTGLKPGTEYVVQIIGVKGGHISLPLSAIFTT
Result block: 88.2

Query block: Determine from records and report Thermal Stability (Tm, C.) for P114AR7P94-E5: c-Met-binding FN3 domain, SEQ ID NO: 42 (protein, c-Met binding FN3 domain) LPAPKNLVVSRVTEDSARLSWTAPDAAFDSFWIRYFEFLGSGEAIVLTVPGSERSYDLTGLKPGTEYAVNIMGVKGGRVSVPLSAIFTT
Result block: 80

Query block: Quickly give me recorded Thermal Stability (Tm, C.) for P114AR7P94-A3: c-Met-binding FN3 domain, SEQ ID NO: 41 (protein, c-Met binding FN3 domain) LPAPKNLVVSRVTEDSARLSWTAPDAAFDSFWIRYFEFLGSGEAIVLTVPGSERSYDLTGLKPGTEYVVNIMGVKGGKISPPLSAIFTT
Result block: 86.2

Query block: In one line, give reported Thermal Stability (Tm, C.) of the entry P114AR7P95-G7: c-Met-binding FN3 domain, SEQ ID NO: 48 (protein, c-Met binding FN3 domain) LPAPKNLVVSRVTEDSARLSWTAPDAAFDSFWIRYFELLSTGEAIVLTVPGSERSYDLTGLKPGTEYVVNIMGVKGGSISPPLSAIFTT .
Result block: 87.2
